Experiment: Urinary excretion study in rats after oral NS, SF or CNS (LC–MS/MS)
Type: in vivo
Details: male, Sprague Dawley, rat, urine, oral, 60 mg/kg, oral NS 60 mg/kg, 4 h
Recorded concentration at 4 h for the following molecules

>  <molecule>
CC(C)=CCC[C@](C)(O[C@@H]1O[C@H](CO)[C@@H](O)[C@H](O)[C@H]1O)[C@H]1CC[C@]2(C)[C@@H]1[C@H](O)C[C@@H]1[C@@]3(C)CC[C@H](O)C(C)(C)[C@@H]3[C@@H](O[C@@H]3O[C@H](CO)[C@@H](O)[C@H](O)[C@H]3O[C@@H]3O[C@@H](C)[C@H](O)[C@@H](O)[C@H]3O)C[C@]12C [ginsenoside Re]

>  <concentration at 4 h [ng/mL]>
91

$$$$
>  <molecule>
CC(C)=CCC[C@](C)(O[C@@H]1O[C@H](CO)[C@@H](O)[C@H](O)[C@H]1O)[C@H]1CC[C@]2(C)[C@@H]1[C@H](O)C[C@@H]1[C@@]3(C)CC[C@H](O[C@@H]4O[C@H](CO)[C@@H](O)[C@H](O)[C@H]4O[C@@H]4O[C@H](CO)[C@@H](O)[C@H](O)[C@H]4O)C(C)(C)[C@@H]3CC[C@]12C [ginsenoside Rd]

>  <concentration at 4 h [ng/mL]>
33

$$$$
>  <molecule>
CC(C)=CCC[C@](C)(O[C@@H]1O[C@H](CO[C@@H]2O[C@H](CO)[C@@H](O)[C@H](O)[C@H]2O)[C@@H](O)[C@H](O)[C@H]1O)[C@H]1CC[C@]2(C)[C@@H]1[C@H](O)C[C@@H]1[C@@]3(C)CC[C@H](O[C@@H]4O[C@H](CO)[C@@H](O)[C@H](O)[C@H]4O[C@@H]4O[C@H](CO)[C@@H](O)[C@H](O)[C@H]4O)C(C)(C)[C@@H]3CC[C@]12C [ginsenoside Rb1]

>  <concentration at 4 h [ng/mL]>
245

$$$$
>  <molecule>
CC(C)=CCC[C@](C)(O[C@@H]1O[C@H](CO)[C@@H](O)[C@H](O)[C@H]1O)[C@H]1CC[C@]2(C)[C@@H]1[C@H](O)C[C@@H]1[C@@]3(C)CC[C@H](O)C(C)(C)[C@@H]3[C@@H](O[C@@H]3O[C@H](CO)[C@@H](O)[C@H](O)[C@H]3O)C[C@]12C [ginsenoside Rg1]

>  <concentration at 4 h [ng/mL]>
1680

$$$$

* * *

Experiment: Urinary excretion study in rats after oral NS, SF or CNS (LC–MS/MS)
Format: in vivo
Conditions: rat urine, oral CNS 110 mg/kg, 6 h
Procedure: The animal room was set at constant temperature of 20 ± 2 °C with humidity of 50 ± 20% and 12/12 h light/dark cycle. Eighteen male rats were fasted for 12 h before starting the experiment. […] The urine volume was recorded and the dry feces were measured for each collection period. […] The accumulative excretion percentage was calculated for each analyte as follows. […]

>  <molecule>
CC(C)=CCC[C@](C)(O[C@@H]1O[C@H](CO)[C@@H](O)[C@H](O)[C@H]1O)[C@H]1CC[C@]2(C)[C@@H]1[C@H](O)C[C@@H]1[C@@]3(C)CC[C@H](O[C@@H]4O[C@H](CO)[C@@H](O)[C@H](O)[C@H]4O[C@@H]4O[C@H](CO)[C@@H](O)[C@H](O)[C@H]4O)C(C)(C)[C@@H]3CC[C@]12C [ginsenoside Rd]

>  <Accumulative excretion amount / µg>
0.024

$$$$
>  <molecule>
CC(C)=CCC[C@](C)(O[C@@H]1O[C@H](CO[C@@H]2O[C@H](CO)[C@@H](O)[C@H](O)[C@H]2O)[C@@H](O)[C@H](O)[C@H]1O)[C@H]1CC[C@]2(C)[C@@H]1[C@H](O)C[C@@H]1[C@@]3(C)CC[C@H](O[C@@H]4O[C@H](CO)[C@@H](O)[C@H](O)[C@H]4O[C@@H]4O[C@H](CO)[C@@H](O)[C@H](O)[C@H]4O)C(C)(C)[C@@H]3CC[C@]12C [ginsenoside Rb1]

>  <Accumulative excretion amount / µg>
0.218

$$$$
>  <molecule>
CC(C)=CCC[C@](C)(O[C@@H]1O[C@H](CO)[C@@H](O)[C@H](O)[C@H]1O)[C@H]1CC[C@]2(C)[C@@H]1[C@H](O)C[C@@H]1[C@@]3(C)CC[C@H](O)C(C)(C)[C@@H]3[C@@H](O[C@@H]3O[C@H](CO)[C@@H](O)[C@H](O)[C@H]3O[C@@H]3O[C@@H](C)[C@H](O)[C@@H](O)[C@H]3O)C[C@]12C [ginsenoside Re]

>  <Accumulative excretion amount / µg>
0.231

$$$$
